assay: Tmax in healthy human at 50 mg, po administered as single dose coadministered with 100 mg of ritonavir; type: ADME, organism-based; conditions: in vivo
measure: Tmax (min)
Your answer is read as min, so omit the unit and give the number.

Problem: Recorded Tmax of CCN1c2ncc(CCOc3cc[n+]([O-])c4ccccc34)cc2C(=O)N(C)c2cccnc21 , please.
Result: 57.5

====

assay: Renal clearance in healthy human at 5 mg, po administered as single dose by high-pressure liquid chromatography-tandem mass spectrometry/mass spectrometry method; type: ADME, organism-based, Kidney; conditions: in vivo, read-out: CL_renal (converted)
measure: CL renal (mL/min)
Your answer is read as mL/min, so omit the unit and give the number.

Problem: Recorded CL renal of CCN1c2ncc(CCOc3cc[n+]([O-])c4ccccc34)cc2C(=O)N(C)c2cccnc21 [BILR 355] , please.
Result: 4.52

====

test: Drug excretion in healthy human urine assessed as unchanged drug at 100 mg, po administered as single dose by high-pressure liquid chromatography-tandem mass spectrometry/mass spectrometry method; format: ADME, organism-based; conditions: read-out: Drug uptake
measure: dose excreted (%)
Your answer is read as %, so omit the unit and give the number.

Problem: Recorded dose excreted of CCN1c2ncc(CCOc3cc[n+]([O-])c4ccccc34)cc2C(=O)N(C)c2cccnc21 , please.
Result: 0.816

====

experiment: AUC (0 to infinity) in healthy human at 25 mg, po administered as single dose coadministered with 100 mg of ritonavir; assay type: ADME, organism-based; set-up: dose 25 mg, route oral, time infinity; conditions: plasma
measure: AUC(0-inf) (ng·h/mL)
Your answer is read as ng·h/mL, so omit the unit and give the number.

Problem: Recorded AUC(0-inf) of CCN1c2ncc(CCOc3cc[n+]([O-])c4ccccc34)cc2C(=O)N(C)c2cccnc21 , please.
Result: 4340

====

test: Half life in healthy human at 37.5 mg, po administered as single dose coadministered with 100 mg of ritonavir; type: ADME, organism-based; conditions: in vivo
measure: half-life
Please answer using a numeric value trailed by its unit.

Problem: Recorded half-life of CCN1c2ncc(CCOc3cc[n+]([O-])c4ccccc34)cc2C(=O)N(C)c2cccnc21 [BILR 355] , please.
Result: 11 h

====

test: AUC (0 to last) in healthy human at 5 mg, po administered as single dose coadministered with 100 mg of ritonavir; type: ADME, organism-based; design: dose 5 mg, time 0 - last, route oral; conditions: plasma
measure: AUC(0-t)
Please answer using a numeric value trailed by its unit.

Problem: Recorded AUC(0-t) of CCN1c2ncc(CCOc3cc[n+]([O-])c4ccccc34)cc2C(=O)N(C)c2cccnc21 [BILR 355] , please.
Result: 615 ng·h/mL

====

assay: Apparent oral clearance in healthy human at 5 mg, po administered as single dose; format: ADME, organism-based; details: in vivo
measure: CL/F (mL/min)
Your answer is read as mL/min, so omit the unit and give the number.

Problem: Recorded CL/F of CCN1c2ncc(CCOc3cc[n+]([O-])c4ccccc34)cc2C(=O)N(C)c2cccnc21 , please.
Result: 2480

====

assay: Apparent oral clearance in healthy human at 75 mg, po administered as single dose coadministered with 100 mg of ritonavir; assay type: ADME, organism-based; details: in vivo
measure: CL/F (mL/min)
Your answer is read as mL/min, so omit the unit and give the number.

Problem: Recorded CL/F of CCN1c2ncc(CCOc3cc[n+]([O-])c4ccccc34)cc2C(=O)N(C)c2cccnc21 , please.
Result: 106

====

assay: Apparent volume of distribution in terminal phase in healthy human at 12.5 mg, po administered as single dose coadministered with 100 mg of ritonavir; format: ADME, organism-based; conditions: in vivo, read-out: Vz/F
measure: Vd/F (L)
Your answer is read as L, so omit the unit and give the number.

Problem: Recorded Vd/F of CCN1c2ncc(CCOc3cc[n+]([O-])c4ccccc34)cc2C(=O)N(C)c2cccnc21 , please.
Result: 149

====

assay: Drug excretion in healthy human urine assessed as unchanged drug at 5 mg, po administered as single dose by high-pressure liquid chromatography-tandem mass spectrometry/mass spectrometry method; type: ADME, organism-based; details: read-out: Drug uptake
measure: dose excreted
Please answer using a numeric value trailed by its unit.

Problem: Recorded dose excreted of CCN1c2ncc(CCOc3cc[n+]([O-])c4ccccc34)cc2C(=O)N(C)c2cccnc21 , please.
Result: 0.172%

====

experiment: Apparent oral clearance in healthy human at 12.5 mg, po administered as single dose coadministered with 100 mg of ritonavir; assay type: ADME, organism-based; details: in vivo
measure: CL/F (mL/min)
Your answer is read as mL/min, so omit the unit and give the number.

Problem: Recorded CL/F of CCN1c2ncc(CCOc3cc[n+]([O-])c4ccccc34)cc2C(=O)N(C)c2cccnc21 , please.
Result: 112

====

test: Mean residence time in healthy human at 25 mg, po administered as single dose; assay type: ADME, organism-based; details: in vivo
measure: MRT (h)
Your answer is read as h, so omit the unit and give the number.

Problem: Recorded MRT of CCN1c2ncc(CCOc3cc[n+]([O-])c4ccccc34)cc2C(=O)N(C)c2cccnc21 , please.
Result: 4.52

====

test: AUC (0 to infinity) in high fat fed healthy human at 50 mg, po administered as single dose coadministered with 100 mg of ritonavir; format: ADME, organism-based; set-up: dose 50 mg, time infinity, route oral; conditions: plasma
measure: AUC(0-inf)

Problem: Recorded AUC(0-inf) of CCN1c2ncc(CCOc3cc[n+]([O-])c4ccccc34)cc2C(=O)N(C)c2cccnc21 , please.
Result: 8300 ng·h/mL

====

assay: Mean residence time in healthy human at 50 mg, po administered as single dose coadministered with 100 mg of ritonavir; assay type: ADME, organism-based; settings: in vivo
measure: MRT (h)
Your answer is read as h, so omit the unit and give the number.

Problem: Recorded MRT of CCN1c2ncc(CCOc3cc[n+]([O-])c4ccccc34)cc2C(=O)N(C)c2cccnc21 [BILR 355] , please.
Result: 16.7

====

assay: Apparent oral clearance in healthy human at 25 mg, po administered as single dose; format: ADME, organism-based; conditions: in vivo
measure: CL/F (mL/min)
Your answer is read as mL/min, so omit the unit and give the number.

Problem: Recorded CL/F of CCN1c2ncc(CCOc3cc[n+]([O-])c4ccccc34)cc2C(=O)N(C)c2cccnc21 , please.
Result: 3400

====

assay: AUC (0 to last) in healthy human at 37.5 mg, po administered as single dose coadministered with 100 mg of ritonavir; type: ADME, organism-based; parameters: dose 37.5 mg, route oral, time 0 - last; conditions: plasma
measure: AUC(0-t)

Problem: Recorded AUC(0-t) of CCN1c2ncc(CCOc3cc[n+]([O-])c4ccccc34)cc2C(=O)N(C)c2cccnc21 [BILR 355] , please.
Result: 5800 ng·h/mL

====

test: Tmax in healthy human at 62.5 mg, po administered as single dose coadministered with 100 mg of ritonavir; format: ADME, organism-based; settings: in vivo
measure: Tmax (min)
Your answer is read as min, so omit the unit and give the number.

Problem: Recorded Tmax of CCN1c2ncc(CCOc3cc[n+]([O-])c4ccccc34)cc2C(=O)N(C)c2cccnc21 , please.
Result: 42

====

experiment: Apparent oral clearance in high fat fed healthy human at 50 mg, po administered as single dose coadministered with 100 mg of ritonavir; type: ADME, organism-based; settings: in vivo
measure: CL/F (mL/min)
Your answer is read as mL/min, so omit the unit and give the number.

Problem: Recorded CL/F of CCN1c2ncc(CCOc3cc[n+]([O-])c4ccccc34)cc2C(=O)N(C)c2cccnc21 , please.
Result: 104

====

assay: AUC (0 to infinity) in healthy human at 87.5 mg, po administered as single dose coadministered with 100 mg of ritonavir; type: ADME, organism-based; set-up: dose 87.5 mg, time infinity, route oral; conditions: plasma
measure: AUC(0-inf)
Please answer using a numeric value trailed by its unit.

Problem: Recorded AUC(0-inf) of CCN1c2ncc(CCOc3cc[n+]([O-])c4ccccc34)cc2C(=O)N(C)c2cccnc21 [BILR 355] , please.
Result: 11800 ng·h/mL

====

assay: Tmax in healthy human at 75 mg, po administered as single dose; type: ADME, organism-based; details: in vivo
measure: Tmax (min)
Your answer is read as min, so omit the unit and give the number.

Problem: Recorded Tmax of CCN1c2ncc(CCOc3cc[n+]([O-])c4ccccc34)cc2C(=O)N(C)c2cccnc21 , please.
Result: 40

====

assay: Half life in healthy human at 50 mg, po administered as single dose coadministered with 100 mg of ritonavir; type: ADME, organism-based; conditions: in vivo
measure: half-life (h)
Your answer is read as h, so omit the unit and give the number.

Problem: Recorded half-life of CCN1c2ncc(CCOc3cc[n+]([O-])c4ccccc34)cc2C(=O)N(C)c2cccnc21 [BILR 355] , please.
Result: 11.5
